- Test system: HCC1599
- Protocol summary: normalised response (% of control), CellTiter-Glo; higher = more viable cells (100 = DMSO, 0 = benzethonium chloride kill control)
- Condition context: incubation time: 72 h
normalised response listing for selected compounds.
Remember to quote the unit after the number.

Sample answers from the record:
| Compound | Property | Value measured |
| --- | --- | --- |
| COc1cc(F)c(F)c(Nc2ccc(I)cc2F)c1NS(=O)(=O)C1(C[C@H](O)CO)CC1 [Refametinib] (1000 nM) | normalised response | 116% |
| Cn1cc(C2=Nc3cc(NC(=O)C(N)C4CCCCC4)cc4c3C2=CNNC4=O)cn1 (centres undefined) (1 nM) | normalised response | 97.4% |
| Nc1ncn([C@@H]2O[C@H](CO)[C@@H](O)[C@H]2O)c(=O)n1 [Azacitidine] (1 nM) | normalised response | 96.8% |
| Cc1ccc([N+](=O)[O-])cc1S(=O)(=O)N(C)/N=C/c1cnc2ccc(Br)cn12 [PIK-75] (1 nM) | normalised response | 108% |
| CC(=O)N(O)CCCCCNC(=O)CCC(=O)N(O)CCCCCNC(=O)CCC(=O)N(O)CCCCCN [Deferoxamine] (1000 nM) | normalised response | 98.2% |

Exercise: normalised response lookup needed for Cn1cnc2c(F)c(Nc3ccc(Br)cc3Cl)c(C(=O)NOCCO)cc21 [Selumetinib] (10 nM) , thanks.
Solution: 95%

Exercise: normalised response lookup needed for C[C@]1(O)C[C@@H](c2nc(-c3ccc4ccc(-c5ccccc5)nc4c3)c3c(N)nccn32)C1 [Linsitinib] (1000 nM) , thanks.
Solution: 92%

Exercise: normalised response lookup needed for O=NN(CCCl)C(=O)NCCCl [Carmustine] (1 nM) , thanks.
Solution: 103%

Exercise: normalised response lookup needed for CC[C@@H]1C(=O)OC[C@@H]1Cc1cncn1C [Pilocarpine] (4 nM) , thanks.
Solution: 76.7%

* * *

- System: CAL-51
- Protocol summary: normalised viability (% of control), CellTiter-Blue; higher = more viable cells (about 100 = DMSO control)
- Condition context: incubation time: 72 h
Label T when normalised viability is strictly below 90%; at or above that, label F.

Record excerpt, results attached:
| Molecule | Target under test | Category label |
| --- | --- | --- |
| O=C1CN2Cc3c(ccc(Cl)c3Cl)N=C2N1 [Anagrelide] (10000 nM) | CAL-51 | T |
| Cn1cc(C2=Nc3cc(NC(=O)C(N)C4CCCCC4)cc4c3C2=CNNC4=O)cn1 (configuration not stated) (10000 nM) | CAL-51 | T |
| Nc1ncn([C@@H]2O[C@H](CO)[C@@H](O)[C@H]2O)c(=O)n1 [Azacitidine] (10000 nM) | CAL-51 | F |
| O=NN(CCCl)C(=O)NCCCl [Carmustine] (10000 nM) | CAL-51 | F |

Exercise: Bench note: check whether C[C@]12CC[C@@H]3c4ccc(OC(=O)N(CCCl)CCCl)cc4CC[C@H]3[C@@H]1CC[C@@H]2O [Estramustine] (990 nM) shows normalised viability below 90%
Solution: T

Exercise: Bench note: check whether CC(C)(C)c1cnc(CSc2cnc(NC(=O)C3CCNCC3)s2)o1 [SNS-032] (10000 nM) shows normalised viability below 90%
Solution: T
